- targetOrTestSystem: EGFR (Homo sapiens, UniProt P00533)
- Construct: started at nucleotide 2189 (corresponding to amino acid 667) and ended at the termination codon
- Sequence (P00533 667-1210 limits assumed): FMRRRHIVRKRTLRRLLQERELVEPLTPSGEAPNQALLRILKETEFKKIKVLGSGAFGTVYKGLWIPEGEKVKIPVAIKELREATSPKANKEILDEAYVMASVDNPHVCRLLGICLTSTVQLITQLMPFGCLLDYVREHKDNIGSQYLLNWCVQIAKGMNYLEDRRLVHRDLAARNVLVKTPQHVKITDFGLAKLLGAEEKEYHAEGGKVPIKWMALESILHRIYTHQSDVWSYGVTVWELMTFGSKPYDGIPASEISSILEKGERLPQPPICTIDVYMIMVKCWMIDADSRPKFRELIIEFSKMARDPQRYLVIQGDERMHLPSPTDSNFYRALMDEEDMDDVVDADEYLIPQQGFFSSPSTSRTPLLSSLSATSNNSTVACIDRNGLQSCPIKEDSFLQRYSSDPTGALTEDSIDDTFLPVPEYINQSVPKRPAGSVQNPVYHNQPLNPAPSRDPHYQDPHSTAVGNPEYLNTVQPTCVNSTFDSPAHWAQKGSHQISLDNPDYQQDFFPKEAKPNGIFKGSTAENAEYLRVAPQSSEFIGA
- methodSummary: EGFR Kinase Assay (GST-EGFR, 33P-ATP, Streptavidin Flashplate)
- experimentalContext: GST-EGFR intracellular portion, 5 μM ATP
Cut-off 80 nM on IC50: below means YES, at or above means NO.

Is it true that IC50 reported for N#Cc1cnc2nc(Nc3ccc(Cl)nc3)sc2c1Nc1ccc(F)c(Cl)c1 [Cpd 28] is less than 80 nM?
NO

Is it true that IC50 reported for COCCN(CCOC)Cc1ccc(Nc2nc3ncc(C#N)c(Nc4ccc(F)c(Cl)c4)c3s2)cc1 [Cpd 4] is less than 80 nM?
YES

Is it true that IC50 reported for N#Cc1cnc2nc(Nc3ccc(CNC[C@H]4CCCO4)cc3)sc2c1Nc1ccc(F)c(Cl)c1 [Cpd 21] is less than 80 nM?
YES

Is it true that IC50 reported for N#Cc1cnc2nc(NCc3ccc(CN4CCOCC4)cc3)sc2c1Nc1ccc(F)c(Cl)c1 [Cpd 22] is less than 80 nM?
NO

Is it true that IC50 reported for CN(C)Cc1ccc(Nc2nc3ncc(C#N)c(Nc4ccc(F)c(Cl)c4)c3s2)cc1Cl [Cpd 18] is less than 80 nM?
NO

Is it true that IC50 reported for N#Cc1cnc2nc(Nc3ccc(NCCN)nc3)sc2c1Nc1ccc(F)c(Cl)c1 [Cpd 30] is less than 80 nM?
YES

Is it true that IC50 reported for CN(C)Cc1ccc(Nc2nc3ncc(C#N)c(Nc4cccc5c4OC(F)(F)O5)c3s2)cc1 [Cpd 25] is less than 80 nM?
YES

Is it true that IC50 reported for C#Cc1cccc(Nc2c(C#N)cnc3nc(Nc4ccc(S(=O)(=O)NCCCN(C)C)cc4)sc23)c1 [Cpd 23] is less than 80 nM?
YES

Is it true that IC50 reported for COc1ccc(Nc2nc3ncc(C#N)c(Nc4ccc(F)c(Cl)c4)c3s2)cn1 [Cpd 26] is less than 80 nM?
NO

Is it true that IC50 reported for N#Cc1cnc2nc(Nc3ccc(S(=O)(=O)NCCN4CCOCC4)cc3)sc2c1Nc1ccc(F)c(Cl)c1 [Cpd 7] is less than 80 nM?
YES

Is it true that IC50 reported for N#Cc1cnc2nc(Nc3ccc(CN4CCOCC4)cc3)sc2c1Nc1ccc(Cl)cc1Cl [Cpd 34] is less than 80 nM?
NO

Is it true that IC50 reported for N#Cc1cnc2nc(Nc3ccc(CN4CCC[C@H]4CO)cc3)sc2c1Nc1ccc(F)c(Cl)c1 [Cpd 6] is less than 80 nM?
YES

Is it true that IC50 reported for N#Cc1cnc2nc(Nc3ccc(CN4CCCC4)cc3)sc2c1Nc1ccc(F)c(Cl)c1 [Cpd 17] is less than 80 nM?
YES

Is it true that IC50 reported for CN(C)Cc1ccc(Nc2nc3ncc(C#N)c(Nc4ccc(F)c(Cl)c4)c3s2)cc1 [Cpd 3] is less than 80 nM?
YES

Is it true that IC50 reported for CN1CCCC(COc2ccc(Nc3nc4ncc(C#N)c(Oc5ccc(Cl)cc5Cl)c4s3)cc2)C1 (centres unmarked) [Cpd 36] is less than 80 nM?
NO

Is it true that IC50 reported for C#Cc1cccc(Nc2c(C#N)cnc3nc(NCCN4CCOCC4)sc23)c1 [Cpd 13] is less than 80 nM?
NO

----------
Data export: IC50 values recorded with c-Src kinase (human) (Homo sapiens, UniProt P12931).
Sequence (P12931 whole entry): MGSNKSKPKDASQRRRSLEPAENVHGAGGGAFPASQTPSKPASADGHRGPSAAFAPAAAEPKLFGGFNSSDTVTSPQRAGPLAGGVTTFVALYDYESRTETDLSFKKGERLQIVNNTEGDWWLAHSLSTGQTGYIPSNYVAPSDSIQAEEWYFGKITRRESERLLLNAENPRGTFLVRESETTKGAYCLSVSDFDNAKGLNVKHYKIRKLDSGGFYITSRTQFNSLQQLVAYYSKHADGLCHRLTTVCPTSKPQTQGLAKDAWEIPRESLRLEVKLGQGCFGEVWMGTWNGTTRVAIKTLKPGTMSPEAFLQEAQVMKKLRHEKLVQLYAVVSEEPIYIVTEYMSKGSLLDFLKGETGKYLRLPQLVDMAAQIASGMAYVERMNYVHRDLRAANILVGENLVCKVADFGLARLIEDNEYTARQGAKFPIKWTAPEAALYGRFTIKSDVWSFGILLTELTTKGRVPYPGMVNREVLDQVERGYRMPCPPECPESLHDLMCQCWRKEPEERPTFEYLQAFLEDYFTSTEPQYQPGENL

Please list IC50 recorded for the molecule COc1cc(Nc2nc3ncc(C#N)c(Nc4c(Cl)ccc5c4OCO5)c3s2)ccc1OCCN1CCOCC1
1380 nM

Please list IC50 recorded for the molecule CN1CCCC(COc2ccc(Nc3nc4ncc(C#N)c(Sc5ccc(F)cc5Cl)c4s3)cc2)C1 (stereo not shown)
> 100000 nM

Please list IC50 recorded for the molecule N#Cc1cnc2nc(Nc3ccc(CN4CCCC4)cc3)sc2c1Nc1c(Cl)ccc2c1OCO2
145 nM

Please list IC50 recorded for the molecule N#Cc1cnc2nc(Nc3ccc(CN4CCOCC4)cc3)sc2c1Nc1c(Cl)ccc2c1OCO2
11 nM

Please list IC50 recorded for the molecule COc1cc(Nc2nc3ncc(C#N)c(Nc4c(Cl)ccc5c4OCO5)c3s2)ccc1OCC1CCCCO1 (stereo not shown)
> 100000 nM

Please list IC50 recorded for the molecule CN(C)Cc1ccc(Nc2nc3ncc(C#N)c(Nc4cccc5c4OC(F)(F)O5)c3s2)cc1
1410 nM

Please list IC50 recorded for the molecule CN1CCN(Cc2ccc(Nc3nc4ncc(C#N)c(Nc5c(Cl)ccc6c5OCO6)c4s3)cc2)CC1
389 nM

Please list IC50 recorded for the molecule CN1CCCC(COc2ccc(Nc3nc4ncc(C#N)c(Nc5c(Cl)ccc6c5OCO6)c4s3)cc2)C1 (stereo not shown)
2390 nM

Please list IC50 recorded for the molecule N#Cc1cnc2nc(Nc3ccc(CNC[C@H]4CCCO4)cc3)sc2c1Nc1c(Cl)ccc2c1OCO2
126 nM

Please list IC50 recorded for the molecule N#Cc1cnc2nc(Nc3ccc(CN4CCCCC4)cc3)sc2c1Nc1c(Cl)ccc2c1OCO2
79 nM

----------
Would you mind telling me the reported inhibition at 1.6 µM of each entry?
- targetOrTestSystem: c-Src kinase (human) (Homo sapiens)
- Construct: purchased Upstate Biotechnology, Lake Placid, N.Y
- methodSummary: c-Src Kinase Assay
- Assay type: biochemical
- experimentalContext: test concentration (2) 1.6 μM; read-out: c-SRC percent inhibition
Report the figure in % without appending any unit label.

Please list inhibition at 1.6 µM recorded for the compound CN1CCCC(COc2ccc(Nc3nc4ncc(C#N)c(Oc5cccc(OC(F)(F)F)c5)c4s3)cc2)C1 (stereo not shown)
3

Please list inhibition at 1.6 µM recorded for the compound COc1ccc(Cl)c(Nc2c(C#N)cnc3nc(Nc4ccc(OCC5CCCN(C)C5)cc4)sc23)c1 (stereo not shown)
11

Please list inhibition at 1.6 µM recorded for the compound CN1CCCC(COc2ccc(Nc3nc4ncc(C#N)c(Sc5cccc(Br)c5)c4s3)cc2)C1 (stereo not shown)
4

Please list inhibition at 1.6 µM recorded for the compound CN1CCCC(COc2ccc(Nc3nc4ncc(C#N)c(Oc5ccc(Cl)cc5Cl)c4s3)cc2)C1 (stereo not shown)
4

----------
- targetOrTestSystem: LYN (m) (Mus musculus, UniProt P25911)
- Sequence (P25911 whole entry): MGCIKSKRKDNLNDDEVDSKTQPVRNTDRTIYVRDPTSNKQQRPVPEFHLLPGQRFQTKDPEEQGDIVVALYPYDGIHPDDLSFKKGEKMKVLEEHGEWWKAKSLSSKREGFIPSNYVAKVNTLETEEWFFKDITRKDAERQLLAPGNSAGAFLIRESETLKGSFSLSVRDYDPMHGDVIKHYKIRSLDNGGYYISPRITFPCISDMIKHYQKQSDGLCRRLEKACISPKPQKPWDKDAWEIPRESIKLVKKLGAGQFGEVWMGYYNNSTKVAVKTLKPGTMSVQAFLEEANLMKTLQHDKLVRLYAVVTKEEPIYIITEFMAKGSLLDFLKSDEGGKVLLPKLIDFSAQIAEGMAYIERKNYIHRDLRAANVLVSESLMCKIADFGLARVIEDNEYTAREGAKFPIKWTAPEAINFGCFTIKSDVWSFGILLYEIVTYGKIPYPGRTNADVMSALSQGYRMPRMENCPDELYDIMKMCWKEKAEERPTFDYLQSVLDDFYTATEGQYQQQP
measuredQuantity: IC50
For clarity, give the value followed by its unit.

Please list IC50 recorded for the molecule CN(C)Cc1ccc(Nc2nc3ncc(C#N)c(Nc4cccc5c4OC(F)(F)O5)c3s2)cc1
790 nM

----------
- targetOrTestSystem: EGFR (Homo sapiens, UniProt P00533)
- Construct: started at nucleotide 2189 (corresponding to amino acid 667) and ended at the termination codon; made in house; host or cells: Sf9 insect cells (baculovirus)
- methodSummary: EGFR Kinase Assay (GST-EGFR, 33P-ATP, Streptavidin Flashplate)
- Format: biochemical
- experimentalContext: test concentration of 2 μM; read-out: EGFR percent inhibition
Given measured inhibition at 2 µM, output Criterion met if it is greater than or equal to 20% and Criterion not met if not.

Has N#Cc1cnc2nc(Nc3ccc(CNC[C@H]4CCCO4)cc3)sc2c1Nc1c(Cl)ccc2c1OCO2 [Cpd 44] a recorded inhibition at 2 µM greater than or equal to 20%?
Criterion met

Has CN1CCN(Cc2ccc(Nc3nc4ncc(C#N)c(Nc5ccc(Oc6ccccc6)cc5)c4s3)cc2)CC1 [Cpd 51] a recorded inhibition at 2 µM greater than or equal to 20%?
Criterion not met

Has COc1cc(Nc2nc3ncc(C#N)c(Nc4c(Cl)ccc5c4OCO5)c3s2)ccc1OCCN1CCOCC1 [Cpd 42] a recorded inhibition at 2 µM greater than or equal to 20%?
Criterion not met

Has CN1CCCC(COc2ccc(Nc3nc4ncc(C#N)c(Nc5c(Cl)ccc6c5OCO6)c4s3)cc2)C1 (stereo not drawn) [Cpd 40] a recorded inhibition at 2 µM greater than or equal to 20%?
Criterion met

Has N#Cc1cnc2nc(Nc3ccc(CN4CCCCC4)cc3)sc2c1Nc1c(Cl)ccc2c1OCO2 [Cpd 41] a recorded inhibition at 2 µM greater than or equal to 20%?
Criterion met

Has COc1cc(Nc2nc3ncc(C#N)c(Nc4c(Cl)ccc5c4OCO5)c3s2)ccc1OCC1CCCCO1 (stereo not drawn) [Cpd 43] a recorded inhibition at 2 µM greater than or equal to 20%?
Criterion not met

----------
Would you mind telling me the reported pIC50 of each entry?
- targetOrTestSystem: EGFR (Homo sapiens)
- Construct: started at nucleotide 2189 (corresponding to amino acid 667) and ended at the termination codon
- methodSummary: EGFR Kinase Assay (GST-EGFR, 33P-ATP, Streptavidin Flashplate)
- experimentalContext: GST-EGFR intracellular portion, 5 μM ATP
Note: pIC50 values are expressed as the negative base-10 logarithm of concentration in M.

Please list pIC50 recorded for the compound CN1CCCC(COc2ccc(Nc3nc4ncc(C#N)c(Sc5cccc(Br)c5)c4s3)cc2)C1 (centres unmarked) [Cpd 38]
5.66

Please list pIC50 recorded for the compound N#Cc1cnc2nc(Nc3ccc(NCCCN4CCOCC4)nc3)sc2c1Nc1ccc(F)c(Cl)c1 [Cpd 29]
7.16

Please list pIC50 recorded for the compound CN(Cc1ccc(Nc2nc3ncc(C#N)c(Nc4ccc(F)c(Cl)c4)c3s2)cc1)C[C@H]1CCCO1 [Cpd 14]
7.53

Please list pIC50 recorded for the compound N#Cc1cnc2nc(Nc3ccc(CN4CCOCC4)cc3)sc2c1Nc1ccc(F)c(Cl)c1 [Cpd 2]
7.11

Please list pIC50 recorded for the compound C#Cc1cccc(Nc2c(C#N)cnc3nc(Nc4ccc(CN5CCC[C@H]5CO)cc4)sc23)c1 [Cpd 11]
7.38

Please list pIC50 recorded for the compound N#Cc1cnc2nc(NCCCN3CCOCC3)sc2c1Nc1ccc(F)c(Cl)c1 [Cpd 8]
5.58

Please list pIC50 recorded for the compound CCc1nccn1Cc1ccc(Nc2nc3ncc(C#N)c(Nc4ccc(F)c(Cl)c4)c3s2)cc1 [Cpd 1]
7.65

Please list pIC50 recorded for the compound CN1CCCC(COc2ccc(Nc3nc4ncc(C#N)c(Sc5ccc(F)cc5Cl)c4s3)cc2)C1 (centres unmarked) [Cpd 39]
5.49

Please list pIC50 recorded for the compound N#Cc1cnc2nc(Nc3ccc(CN4CCC(N)CC4)cc3)sc2c1Nc1ccc(F)c(Cl)c1 [Cpd 31]
7.22

Please list pIC50 recorded for the compound COCCN(CCOC)S(=O)(=O)c1ccc(Nc2nc3ncc(C#N)c(Nc4ccc(F)c(Cl)c4)c3s2)cc1 [Cpd 5]
7.20

Please list pIC50 recorded for the compound COc1ccc(Cl)c(Nc2c(C#N)cnc3nc(Nc4ccc(OCC5CCCN(C)C5)cc4)sc23)c1 (centres unmarked) [Cpd 35]
6.34
